Data origin: ChEMBL document CHEMBL4308841

- Test system: Malme-3M
- Protocol Details: Growth inhibition of human MALME-3M cells assessed as cell growth at 0.1 uM incubated for 48 hrs by sulforhodamine B assay relative to control
- Assay type: functional
- Measurement Setup: read-out: Activity
Assay Metric: growth at 0.1 µM (%)
Give the value, in units of %, as a plain number.

Inquiry: Using known records, supply growth at 0.1 µM for COc1cc(Cl)cc(-c2nn(-c3cccc(NC(=O)Nc4cccc(C(F)(F)F)c4)c3)cc2-c2ccncc2)c1
Reply text: 50

Inquiry: Using known records, supply growth at 0.1 µM for COc1cc(Cl)cc(-c2nn(-c3cccc(NC(=O)c4cccc(C(F)(F)F)c4)c3)cc2-c2ccncc2)c1
Reply text: 90

Inquiry: Using known records, supply growth at 0.1 µM for COc1cc(Cl)cc(-c2nn(-c3cccc(NC(=O)Nc4ccc(Cl)c(C(F)(F)F)c4)c3)cc2-c2ccncc2)c1
Reply text: 79

Inquiry: Using known records, supply growth at 0.1 µM for COc1cc(Cl)cc(-c2nn(-c3cccc(NC(=O)c4ccc(N5CCOCC5)c(C(F)(F)F)c4)c3)cc2-c2ccncc2)c1
Reply text: 85

---

growth at 0.01 µM for assorted compounds
- System: OVCAR-3
- Protocol Details: Growth inhibition of human OVCAR3 cells assessed as cell growth at 0.01 uM incubated for 48 hrs by sulforhodamine B assay relative to control
- Format: functional
- Measurement Setup: OVCAR-3, 48 h, read-out: Activity
Give the value, in units of %, as a plain number.

COc1cc(Cl)cc(-c2nn(-c3cccc(NC(=O)Nc4ccc(Cl)c(C(F)(F)F)c4)c3)cc2-c2ccncc2)c1 | 91

Inquiry: Report measured growth at 0.01 µM on OVCAR-3; entry: COc1cc(Cl)cc(-c2nn(-c3cccc(NC(=O)Nc4ccc(Cl)c(Cl)c4)c3)cc2-c2ccncc2)c1
Reply text: 100

Inquiry: Report measured growth at 0.01 µM on OVCAR-3; entry: O=C(Nc1cccc(-n2cc(-c3ccncc3)c(-c3cc(O)cc(Cl)c3)n2)c1)Nc1ccc(Cl)c(C(F)(F)F)c1
Reply text: 101

---

- Test system: ACHN
- Protocol Details: Growth inhibition of human ACHN cells assessed as cell growth at 100 uM incubated for 48 hrs by sulforhodamine B assay relative to control
- Type: functional
- Measurement Setup: read-out: Activity
Values of growth at 100 µM strictly less than -20% map to label 1, and values of at least -20% map to label 0.

Inquiry: Threshold test, growth at 100 µM < -20%: O=C(Nc1cccc(-n2cc(-c3ccncc3)c(-c3cc(O)cc(Cl)c3)n2)c1)Nc1ccc(Cl)c(Cl)c1
Reply text: label 1

Inquiry: Threshold test, growth at 100 µM < -20%: O=C(Nc1cccc(-n2cc(-c3ccncc3)c(-c3cc(O)cc(Cl)c3)n2)c1)Nc1ccc(Cl)c(C(F)(F)F)c1
Reply text: label 1

Inquiry: Threshold test, growth at 100 µM < -20%: COc1cc(Cl)cc(-c2nn(-c3cccc(NC(=O)c4ccc(N5CCOCC5)c(C(F)(F)F)c4)c3)cc2-c2ccncc2)c1
Reply text: label 0

Inquiry: Threshold test, growth at 100 µM < -20%: COc1cc(Cl)cc(-c2nn(-c3cccc(NC(=O)Nc4cc(C(F)(F)F)cc(C(F)(F)F)c4)c3)cc2-c2ccncc2)c1
Reply text: label 1

Inquiry: Threshold test, growth at 100 µM < -20%: COc1cc(Cl)cc(-c2nn(-c3cccc(NC(=O)Nc4ccc(Cl)c(C(F)(F)F)c4)c3)cc2-c2ccncc2)c1
Reply text: label 1

Inquiry: Threshold test, growth at 100 µM < -20%: O=C(Nc1cccc(-n2cc(-c3ccncc3)c(-c3cc(O)cc(Cl)c3)n2)c1)c1cc(C(F)(F)F)cc(C(F)(F)F)c1
Reply text: label 0

---

- System: HCT-116
- Protocol Details: Growth inhibition of human HCT116 cells incubated for 48 hrs by sulforhodamine B assay
- Format: functional, cell-based
- Measurement Setup: HCT-116, 48 h, read-out: pLC50 (the source's name) (converted)
CC50 for assorted molecules
Give the value, in units of µM, as a plain number.

# count of solved cases: 2
COc1cc(Cl)cc(-c2nn(-c3cccc(NC(=O)Nc4cc(C(F)(F)F)cc(C(F)(F)F)c4)c3)cc2-c2ccncc2)c1 | 6.61
COc1cc(Cl)cc(-c2nn(-c3cccc(NC(=O)Nc4ccc(Cl)c(C(F)(F)F)c4)c3)cc2-c2ccncc2)c1 | 7.24

Here is another molecule to look at.
Inquiry: Using known records, supply CC50 for COc1cc(Cl)cc(-c2nn(-c3cccc(NC(=O)Nc4cccc(C(F)(F)F)c4)c3)cc2-c2ccncc2)c1
Reply text: 38.9

---

- System: OVCAR-4
- Protocol Details: Growth inhibition of human OVCAR4 cells assessed as cell growth at 10 uM incubated for 48 hrs by sulforhodamine B assay relative to control
- Type: functional
- Measurement Setup: OVCAR-4, 48 h, read-out: Activity
growth at 10 µM for assorted molecules
Give the value, in units of %, as a plain number.

# count of solved cases: 4
COc1cc(Cl)cc(-c2nn(-c3cccc(NC(=O)c4cccc(C(F)(F)F)c4)c3)cc2-c2ccncc2)c1 | 71.8
O=C(Nc1cccc(-n2cc(-c3ccncc3)c(-c3cc(O)cc(Cl)c3)n2)c1)c1ccc(N2CCOCC2)c(C(F)(F)F)c1 | 77.1
COc1cc(Cl)cc(-c2nn(-c3cccc(NC(=O)Nc4cccc(C(F)(F)F)c4)c3)cc2-c2ccncc2)c1 | 3.28
O=C(Nc1cccc(-n2cc(-c3ccncc3)c(-c3cc(O)cc(Cl)c3)n2)c1)c1cc(C(F)(F)F)cc(C(F)(F)F)c1 | 59.6

Inquiry: Report measured growth at 10 µM on OVCAR-4; entry: COc1cc(Cl)cc(-c2nn(-c3cccc(NC(=O)c4cc(C(F)(F)F)cc(C(F)(F)F)c4)c3)cc2-c2ccncc2)c1
Reply text: 72.1

---

GI50 for assorted compounds
- System: K562
- Protocol Details: Growth inhibition of human K562 cells incubated for 48 hrs by sulforhodamine B assay
- Type: functional, cell-based
- Measurement Setup: K562, 48 h, read-out: pGI50 (converted)
Give the value, in units of nM, as a plain number.

COc1cc(Cl)cc(-c2nn(-c3cccc(NC(=O)Nc4cc(C(F)(F)F)cc(C(F)(F)F)c4)c3)cc2-c2ccncc2)c1 | 355

Inquiry: Using known records, supply GI50 for COc1cc(Cl)cc(-c2nn(-c3cccc(NC(=O)Nc4ccc(Cl)c(Cl)c4)c3)cc2-c2ccncc2)c1
Reply text: 1950

Inquiry: Using known records, supply GI50 for COc1cc(Cl)cc(-c2nn(-c3cccc(NC(=O)c4cccc(C(F)(F)F)c4)c3)cc2-c2ccncc2)c1
Reply text: 4680

Inquiry: Using known records, supply GI50 for O=C(Nc1cccc(-n2cc(-c3ccncc3)c(-c3cc(O)cc(Cl)c3)n2)c1)c1cc(C(F)(F)F)cc(C(F)(F)F)c1
Reply text: 3240

---

TGI for assorted compounds
- System: KM12
- Protocol Details: Growth inhibition of human KM12 cells incubated for 48 hrs by sulforhodamine B assay
- Format: functional, cell-based
- Measurement Setup: KM12, 48 h, read-out: pTGI (converted)
Give the value, in units of µM, as a plain number.

# count of solved cases: 2
COc1cc(Cl)cc(-c2nn(-c3cccc(NC(=O)Nc4ccc(Cl)c(Cl)c4)c3)cc2-c2ccncc2)c1 | 10.7
COc1cc(Cl)cc(-c2nn(-c3cccc(NC(=O)Nc4cc(C(F)(F)F)cc(C(F)(F)F)c4)c3)cc2-c2ccncc2)c1 | 2.75

Inquiry: Using known records, supply TGI for O=C(Nc1cccc(-n2cc(-c3ccncc3)c(-c3cc(O)cc(Cl)c3)n2)c1)Nc1ccc(Cl)c(C(F)(F)F)c1
Reply text: 9.77

---

- Test system: U-251
- Protocol Details: Growth inhibition of human U251 cells incubated for 48 hrs by sulforhodamine B assay
- Assay type: functional, cell-based
- Measurement Setup: U-251, 48 h
Assay Metric: IC50
Please state the number and follow it with the unit.

# count of solved cases: 3
O=C(Nc1cccc(-n2cc(-c3ccncc3)c(-c3cc(O)cc(Cl)c3)n2)c1)Nc1ccc(Cl)c(Cl)c1 | 1440 nM
COc1cc(Cl)cc(-c2nn(-c3cccc(NC(=O)Nc4ccc(Cl)c(C(F)(F)F)c4)c3)cc2-c2ccncc2)c1 | 730 nM
COc1cc(Cl)cc(-c2nn(-c3cccc(NC(=O)c4cccc(C(F)(F)F)c4)c3)cc2-c2ccncc2)c1 | 5560 nM

Inquiry: Using known records, supply IC50 for O=C(Nc1cccc(-n2cc(-c3ccncc3)c(-c3cc(O)cc(Cl)c3)n2)c1)c1cc(C(F)(F)F)cc(C(F)(F)F)c1
Reply text: 3230 nM

---

growth at 10 µM for assorted compounds
- Tested on: Malme-3M
- Protocol Details: Growth inhibition of human MALME-3M cells assessed as cell growth at 10 uM incubated for 48 hrs by sulforhodamine B assay relative to control
- Format: functional
- Measurement Setup: read-out: Activity
Give the value, in units of %, as a plain number.

# count of solved cases: 3
COc1cc(Cl)cc(-c2nn(-c3cccc(NC(=O)Nc4cc(C(F)(F)F)cc(C(F)(F)F)c4)c3)cc2-c2ccncc2)c1 | -19.2
COc1cc(Cl)cc(-c2nn(-c3cccc(NC(=O)c4ccc(Cl)c(Cl)c4)c3)cc2-c2ccncc2)c1 | 96.4
COc1cc(Cl)cc(-c2nn(-c3cccc(NC(=O)Nc4ccc(Cl)c(Cl)c4)c3)cc2-c2ccncc2)c1 | -19.8

Inquiry: Using known records, supply growth at 10 µM for O=C(Nc1cccc(-n2cc(-c3ccncc3)c(-c3cc(O)cc(Cl)c3)n2)c1)c1cc(C(F)(F)F)cc(C(F)(F)F)c1
Reply text: 61.8
